Target Or System: Phosphatidylinositol 4,5-bisphosphate 3-kinase catalytic subunit gamma isoform (Homo sapiens, UniProt P48736)
Sequence (P48736 whole entry, canonical isoform): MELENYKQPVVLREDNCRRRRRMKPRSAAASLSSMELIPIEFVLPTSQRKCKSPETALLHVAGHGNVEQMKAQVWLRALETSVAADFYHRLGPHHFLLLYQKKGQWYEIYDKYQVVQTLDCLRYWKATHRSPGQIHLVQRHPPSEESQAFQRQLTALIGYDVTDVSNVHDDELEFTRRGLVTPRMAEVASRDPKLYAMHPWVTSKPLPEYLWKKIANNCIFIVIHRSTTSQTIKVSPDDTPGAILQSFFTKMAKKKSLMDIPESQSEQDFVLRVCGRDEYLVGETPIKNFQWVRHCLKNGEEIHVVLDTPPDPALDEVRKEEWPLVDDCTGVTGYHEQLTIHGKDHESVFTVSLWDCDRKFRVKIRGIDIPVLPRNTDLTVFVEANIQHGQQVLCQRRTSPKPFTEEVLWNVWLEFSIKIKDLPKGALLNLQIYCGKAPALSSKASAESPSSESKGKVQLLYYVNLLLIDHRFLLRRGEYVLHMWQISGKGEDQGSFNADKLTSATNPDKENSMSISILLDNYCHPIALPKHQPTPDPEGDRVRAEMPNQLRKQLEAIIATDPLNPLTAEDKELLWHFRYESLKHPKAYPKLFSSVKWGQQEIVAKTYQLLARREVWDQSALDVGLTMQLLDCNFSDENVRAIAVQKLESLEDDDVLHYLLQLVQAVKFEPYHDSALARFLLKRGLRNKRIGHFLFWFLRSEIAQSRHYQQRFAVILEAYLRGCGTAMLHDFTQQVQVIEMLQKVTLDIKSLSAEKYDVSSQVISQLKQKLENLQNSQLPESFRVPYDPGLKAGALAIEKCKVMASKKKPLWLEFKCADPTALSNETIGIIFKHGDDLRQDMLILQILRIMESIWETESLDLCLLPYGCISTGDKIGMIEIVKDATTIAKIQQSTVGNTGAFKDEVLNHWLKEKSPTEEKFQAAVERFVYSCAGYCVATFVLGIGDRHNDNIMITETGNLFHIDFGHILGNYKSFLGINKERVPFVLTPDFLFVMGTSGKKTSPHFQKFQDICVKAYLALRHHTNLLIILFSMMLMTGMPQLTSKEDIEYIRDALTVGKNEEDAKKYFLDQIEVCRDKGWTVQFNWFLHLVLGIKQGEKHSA
Experimental Details: biochemical
Description: Inhibition of human N-terminal poly-His tagged-PI3Kgamma expressed in Sf9 baculovirus system co-expressing p85alpha after 20 mins by AlphaScreen assay
Observation Type: Ki (nM)
Answer format: numeric, nM implied, no suffix.

For orientation, consider the following solved cases.
>>> measured_value("COc1ccc(Nc2ncc(CN3CCCCC3)cc2-c2nc(C)nc(N)n2)cn1")
80
>>> measured_value("COc1ccc(Nc2ncc(C3=CCOCC3)cc2-c2nc(C)nc(N)n2)cn1")
2
>>> measured_value("COc1ccc(Nc2ncc(CC3CCN(S(C)(=O)=O)CC3)cc2-c2nc(C)nc(N)n2)cn1")
8
>>> measured_value("COc1ccc(Nc2ncc(Cc3ccc(S(C)(=O)=O)cc3)cc2-c2nc(C)nc(N)n2)cn1")
7
>>> measured_value("Cc1nc(-c2cccnc2Nc2cccc3[nH]ncc23)c2nc[nH]c2n1")
12

Notebook: COc1ccc(Nc2ccccc2-c2nc(C)nc(N)n2)cn1 , Ki read as 380

Summary for this molecule, Cc1ncnc(-n2c(Nc3cccc(O)c3)nc3ccccc32)n1 : Ki is 4

Looking up COc1ccc(Nc2ncc(C)cc2-c2nc(C)nc(N)n2)cn1 , I found its Ki recorded as 54

Kindly note the recorded Ki for COC(=O)N1CCN(Cc2cnc(Nc3ccc(OC)nc3)c(-c3nc(C)nc(N)n3)c2)CC1 , which is 18

For record Cc1nc(-c2cccnc2Nc2cccc3n[nH]cc23)c2c[nH]nc2n1 the listed Ki is 450

====

Target Or System: Phosphatidylinositol 4,5-bisphosphate 3-kinase catalytic subunit beta isoform (Homo sapiens)
Experimental Details: biochemical
Description: Inhibition of human N-terminal poly-His tagged-PI3Kbeta expressed in Sf9 baculovirus system co-expressing p85alpha after 20 mins by AlphaScreen assay
# maps each entry to its pKi
Here pKi is given on a logarithmic scale as minus log10 of the concentration in mol/L.

>>> measured_value("COc1ccc(Nc2ncccc2-c2nc(C)nc3nc[nH]c23)cn1")
7.35
>>> measured_value("COc1ccc(Nc2nccnc2-c2cc(N)nc(C)n2)cn1")
6.89
>>> measured_value("COc1ccc(Nc2ncc(CN3CCC3)cc2-c2nc(C)nc(N)n2)cn1")
7.66

// sample Cc1nc(N)c(F)c(-c2cccnc2Nc2cccc3[nH]ncc23)n1 , its pKi was 6.00

====

Experimental Details: in vitro
Settings: rat, liver microsomes
Description: Intrinsic clearance in rat liver microsomes
Measured microsomal CLint, listed per entry.
The reply should be a number in µL/min/mg, with the unit left off.

>>> measured_value("COc1ccc(Nc2ncc(Cc3ccc(S(C)(=O)=O)cc3)cc2-c2nc(C)nc(N)n2)cn1")
59
>>> measured_value("COc1ccc(Nc2ncc(CN3CCCN(S(C)(=O)=O)CC3)cc2-c2nc(C)nc(N)n2)cn1")
242

response.value for COC(=O)N1CCN(Cc2cnc(Nc3ccc(OC)nc3)c(-c3nc(C)nc(N)n3)c2)CC1 (field: microsomal CLint) = 20

Item: COc1ccc(Nc2ncc(-c3cnn(C)c3)cc2-c2nc(C)nc(N)n2)cn1 | microsomal CLint: 24

The compound identified as COc1ccc(Nc2ccccc2-c2nc(C)nc(N)n2)cn1 registered its microsomal CLint at 190

The compound identified as COc1ccc(Nc2ncc(CN3CCC(S(C)(=O)=O)CC3)cc2-c2nc(C)nc(N)n2)cn1 registered its microsomal CLint at 20

Record COc1ccc(Nc2nccnc2-c2cc(N)nc(C)n2)cn1 . Reported microsomal CLint: 72

The measured microsomal CLint associated with COc1ccc(Nc2ncncc2-c2nc(C)nc(N)n2)cn1 reads 110

Record summary for COc1ccc(Nc2cnccc2-c2nc(C)nc(N)n2)cn1 : reported microsomal CLint = 133

Just so you know, measured microsomal CLint for COc1ccc(Nc2ncc(Cl)cc2-c2nc(C)nc(N)n2)cn1 came out at 58

Input COc1ccc(Nc2ncc(CC3CCN(S(C)(=O)=O)CC3)cc2-c2nc(C)nc(N)n2)cn1 . Output microsomal CLint: 111

Per the records, this compound ( Cc1ncnc(-n2c(Nc3cccc(O)c3)nc3ccccc32)n1 ) has microsomal CLint equal to 218

====

Experimental Details: in vivo
Settings: rat, iv, 1 mg/kg
Description: Volume of distribution at steady state in rat at 1 mg/kg, iv
Observation Type: Vd (L/kg)
Give just the numeric value; L/kg need not be written.

Known Vd results, listed for orientation:
>>> measured_value("COc1ccc(Nc2ncc(CN3CCC(S(C)(=O)=O)CC3)cc2-c2nc(C)nc(N)n2)cn1")
2.9
>>> measured_value("COc1ccc(Nc2ncc(CC3CCN(S(C)(=O)=O)CC3)cc2-c2nc(C)nc(N)n2)cn1")
2.7

Proceeding to the next compound to report its Vd.
In plain terms, COc1ccc(Nc2ncc(Cc3ccc(S(C)(=O)=O)cc3)cc2-c2nc(C)nc(N)n2)cn1 has a documented Vd of 2.1

====

Target Or System: Phosphatidylinositol 4,5-bisphosphate 3-kinase catalytic subunit beta isoform (Homo sapiens, UniProt P42338)
Sequence (P42338 whole entry, canonical isoform): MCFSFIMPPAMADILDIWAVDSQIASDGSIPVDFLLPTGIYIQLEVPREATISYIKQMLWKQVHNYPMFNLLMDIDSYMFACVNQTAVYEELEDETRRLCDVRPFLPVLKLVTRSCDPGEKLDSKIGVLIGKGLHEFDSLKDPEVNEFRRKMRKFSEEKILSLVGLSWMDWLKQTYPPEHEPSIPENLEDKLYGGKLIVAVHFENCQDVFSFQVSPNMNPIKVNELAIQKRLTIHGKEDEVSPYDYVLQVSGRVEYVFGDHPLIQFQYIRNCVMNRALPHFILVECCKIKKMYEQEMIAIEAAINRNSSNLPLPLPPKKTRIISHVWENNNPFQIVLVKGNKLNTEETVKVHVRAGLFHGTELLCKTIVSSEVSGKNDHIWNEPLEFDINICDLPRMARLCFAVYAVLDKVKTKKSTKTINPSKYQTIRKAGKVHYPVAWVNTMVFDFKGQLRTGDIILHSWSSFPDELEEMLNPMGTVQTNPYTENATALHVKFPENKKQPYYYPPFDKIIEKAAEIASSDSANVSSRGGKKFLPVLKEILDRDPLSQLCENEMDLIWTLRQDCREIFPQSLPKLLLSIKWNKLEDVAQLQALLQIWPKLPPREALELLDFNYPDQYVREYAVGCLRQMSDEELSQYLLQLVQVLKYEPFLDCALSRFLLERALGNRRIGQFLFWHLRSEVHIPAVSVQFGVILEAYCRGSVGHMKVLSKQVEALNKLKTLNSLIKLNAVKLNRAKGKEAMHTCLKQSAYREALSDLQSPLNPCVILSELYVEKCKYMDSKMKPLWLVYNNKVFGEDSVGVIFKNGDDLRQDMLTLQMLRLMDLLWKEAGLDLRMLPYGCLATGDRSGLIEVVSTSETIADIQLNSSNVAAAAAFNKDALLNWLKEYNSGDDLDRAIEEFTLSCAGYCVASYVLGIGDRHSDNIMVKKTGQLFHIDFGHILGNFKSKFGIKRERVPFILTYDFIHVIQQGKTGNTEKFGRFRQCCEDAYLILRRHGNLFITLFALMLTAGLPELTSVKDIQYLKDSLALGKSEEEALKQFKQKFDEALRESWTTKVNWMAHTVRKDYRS
Experimental Details: biochemical
Observation Type: pKi
Interpret pKi as the negative base-10 log of the concentration measured in mol/L.

Recorded results for 3 compounds are shown here.
>>> measured_value("COc1ccc(Nc2ncc(CN3CCC(O)CC3)cc2-c2nc(C)nc(N)n2)cn1")
7.39
>>> measured_value("COc1ccc(Nc2ncc(-c3ccc(C)nc3)cc2-c2nc(C)nc(N)n2)cn1")
7.05
>>> measured_value("COCCNCc1cnc(Nc2ccc(OC)nc2)c(-c2nc(C)nc(N)n2)c1")
7.17

Alright, here's another compound for you.
Summary for this compound, Cc1nc(-c2cccnc2Nc2cccc3n[nH]cc23)c2c[nH]nc2n1 : pKi is 5.64

====

Experimental Details: in vitro
Settings: rat, liver microsomes
Quick reference for log10 microsomal CLint among some molecules
Form field - Quantity: microsomal CLint; Unit: µL/min/mg; Scale: log10

>>> measured_value("Cc1nc(NCC#N)nc(-n2c(Nc3cccc(O)c3)nc3ccccc32)n1")
2.60

Value of log10 microsomal CLint reported for the molecule Cc1nc(N)cc(-c2cccnc2Nc2cccc(O)c2)n1 is 1.79

Kindly note the recorded log10 microsomal CLint for COc1ccc(Nc2ncc(-c3ccc(C)nc3)cc2-c2nc(C)nc(N)n2)cn1 , which is 1.40

What the record says about COc1ccc(Nc2ncc(CN3CC[C@@H](CO)C3)cc2-c2nc(C)nc(N)n2)cn1 : log10 microsomal CLint is 1.30

Documented log10 microsomal CLint of COc1ccc(Nc2ncc(CN3CCCCC3)cc2-c2nc(C)nc(N)n2)cn1 : 1.71

The recorded log10 microsomal CLint for COc1ccc(Nc2ncc(CN3CCC(S(C)(=O)=O)C3)cc2-c2nc(C)nc(N)n2)cn1 (racemic) is 1.36

The recorded log10 microsomal CLint for COc1ccc(Nc2ncc(CN3CCS(=O)(=O)CC3)cc2-c2nc(C)nc(N)n2)cn1 is 1.32

Recorded result, Cc1nc(N)c(F)c(-c2cccnc2Nc2cccc3[nH]ncc23)n1 , log10 microsomal CLint: 1.85

Looking up COc1ccc(Nc2ncc(CN3CCOCC3)cc2-c2nc(C)nc(N)n2)cn1 , I found its log10 microsomal CLint recorded as 1.49

Sure, the documented log10 microsomal CLint for c1cnc(Nc2cccc3n[nH]cc23)c(-c2ncnc3nc[nH]c23)c1 is 2.06

====

Target Or System: Phosphatidylinositol 4,5-bisphosphate 3-kinase catalytic subunit gamma isoform (Homo sapiens, UniProt P48736)
Experimental Details: biochemical
Classify: True when Ki is strictly less than 0.01 µM; False when Ki is not.

>>> class_assignment("Cc1nc(N)cc(-c2cccnc2Nc2cccc(O)c2)n1")
"False"

## Task Consider the molecule COc1ccc(Nc2ncc(-c3cnn(C)c3)cc2-c2nc(C)nc(N)n2)cn1 . Is its Ki strictly less than 0.01 µM?
## Result True

## Task Lab note: confirm whether the reported Ki for this molecule is below 0.01 µM, equality not counting. molecule: COc1ccc(Nc2ncc(CN3CCC(O)CC3)cc2-c2nc(C)nc(N)n2)cn1
## Result False

## Task Please check: Ki for COc1ccc(N(C)c2ncccc2-c2nc(C)nc(N)n2)cn1 , strictly under 0.01 µM or not?
## Result False

## Task Please state whether Ki is below 0.01 µM for COc1ccc(Nc2cccnc2-c2nc(C)nc(N)n2)cn1
## Result False

## Task Record COc1ccc(Nc2ncc(CN3CCC(S(C)(=O)=O)CC3)cc2-c2nc(C)nc(N)n2)cn1 : is its Ki strictly below 0.01 µM?
## Result True

## Task Is Ki of COc1ccc(Nc2ncc(N3CCOCC3)cc2-c2nc(C)nc(N)n2)cn1 strictly below 0.01 µM?
## Result True

## Task For this molecule, is Ki lower than 0.01 µM? COc1ccc(Nc2ncc(Cc3ccccc3)cc2-c2nc(C)nc(N)n2)cn1
## Result False

## Task Check if Ki falls below 0.01 µM for COc1ccc(Nc2ncc(N3CCN(C)CC3)cc2-c2nc(C)nc(N)n2)cn1 .
## Result False

## Task For this molecule, is Ki lower than 0.01 µM? COc1ccc(Nc2cnccc2-c2nc(C)nc(N)n2)cn1
## Result False

## Task Say whether its Ki is strictly beneath 0.01 µM. Entry: Cc1cc(-c2cccnc2Nc2cccc(O)c2)nc(N)n1
## Result False
